Origin of values: patent US11866430B2

- study_target: human DGKα (Homo sapiens (Human))
- Sequence (P23743 other isoform, or with tags, fused parts or gaps): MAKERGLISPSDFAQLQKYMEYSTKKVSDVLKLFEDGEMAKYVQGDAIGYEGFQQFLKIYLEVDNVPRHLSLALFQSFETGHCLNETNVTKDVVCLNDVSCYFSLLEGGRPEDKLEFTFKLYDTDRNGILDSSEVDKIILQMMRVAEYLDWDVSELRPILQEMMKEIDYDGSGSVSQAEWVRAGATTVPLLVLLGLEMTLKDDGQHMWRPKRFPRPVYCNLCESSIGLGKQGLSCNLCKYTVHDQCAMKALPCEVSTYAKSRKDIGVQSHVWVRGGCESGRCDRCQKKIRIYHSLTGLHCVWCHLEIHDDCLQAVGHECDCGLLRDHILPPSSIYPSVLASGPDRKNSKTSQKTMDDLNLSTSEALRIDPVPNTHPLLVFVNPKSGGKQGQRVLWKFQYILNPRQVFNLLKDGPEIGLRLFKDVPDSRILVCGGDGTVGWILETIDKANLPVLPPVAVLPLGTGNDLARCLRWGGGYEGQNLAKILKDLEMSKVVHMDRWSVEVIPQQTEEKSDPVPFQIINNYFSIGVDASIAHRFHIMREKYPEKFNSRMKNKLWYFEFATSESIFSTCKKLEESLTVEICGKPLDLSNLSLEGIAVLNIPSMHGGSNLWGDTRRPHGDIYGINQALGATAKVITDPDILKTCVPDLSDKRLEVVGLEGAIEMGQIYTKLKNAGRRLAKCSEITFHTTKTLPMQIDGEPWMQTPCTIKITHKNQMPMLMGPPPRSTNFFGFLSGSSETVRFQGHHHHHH
- test_details: biochemical
- test_parameters: detergent/lipid micelle substrate; read-out: DGKα IC50
parameter: IC50 (µM)
Answers are plain numbers, in µM.

compound="C=CCOc1cc(F)ccc1C(C)N1CCN(c2c(C#N)c(=O)n(C)c3ccc(Cl)nc23)CC1 (centres unmarked)" study_target="human DGKα (Homo sapiens (Human))" quantity_unit=µM quantitative_result=0.22
compound=COc1ccc(CN2CCN(c3c(C#N)c(=O)n(C)c4ccc(Br)nc34)CC2)c(O)c1 study_target="human DGKα (Homo sapiens (Human))" quantity_unit=µM quantitative_result=0.13
compound=C#CCn1c(=O)c(C#N)c(N2CCN(Cc3ccccc3C(F)F)CC2)c2nc(Br)ccc21 study_target="human DGKα (Homo sapiens (Human))" quantity_unit=µM quantitative_result=2.7
compound=Cn1c(=O)c(C#N)c(N2CCN(Cc3ccccc3O)CC2)c2nc(Cl)ccc21 study_target="human DGKα (Homo sapiens (Human))" quantity_unit=µM quantitative_result=0.074
compound=COc1cccc(F)c1CN1CCN(c2c(C#N)c(=O)n(C)c3ccc(Cl)nc23)CC1 study_target="human DGKα (Homo sapiens (Human))" quantity_unit=µM quantitative_result=2.7
compound=Cn1c(=O)c(C#N)c(N2CCN(Cc3ccccc3Cl)CC2)c2nc(Cl)ccc21 study_target="human DGKα (Homo sapiens (Human))" quantity_unit=µM quantitative_result=1.5
compound="COCCn1c(=O)c([N+](=O)[O-])c(N2CCN(C(C)c3ccc(F)cc3)CC2)c2nc(C#N)ccc21 (single isomer, unassigned) [Example 150]" study_target="human DGKα (Homo sapiens (Human))" quantity_unit=µM quantitative_result=73
compound=Cc1ccc2c(n1)c(N1CCN(C(c3ccc(F)cc3)c3ccc(F)cc3)CC1)c(Cl)c(=O)n2C study_target="human DGKα (Homo sapiens (Human))" quantity_unit=µM quantitative_result=8.4
compound="C#CCOc1ccccc1C(c1ccc(F)cc1)N1CCN(c2c([N+](=O)[O-])c(=O)n(C)c3ccc(C#N)nc23)CC1 (single isomer, unassigned)" study_target="human DGKα (Homo sapiens (Human))" quantity_unit=µM quantitative_result=15
compound=Cn1c(=O)c(C#N)c(N2CCN(Cc3cc(C#N)ccc3F)CC2)c2nc(Cl)ccc21 study_target="human DGKα (Homo sapiens (Human))" quantity_unit=µM quantitative_result=4.2

Provide reported IC50 for each item, in the same order as listed.
1. Cc1ccc2c(n1)c(N1CCN(Cc3cccc(Cl)c3O)CC1)c(C#N)c(=O)n2C
2. Cn1c(=O)c(C#N)c(N2CCN(Cc3cccc(Br)c3O)CC2)c2nc(Br)ccc21
3. Cc1ccc(F)c(CN2CCN(c3c(C#N)c(=O)n(C)c4ccc(Cl)nc34)CC2)c1
4. COCCn1c(=O)c(C#N)c(N2CCN(C(c3ccc(F)cc3)c3ccc(F)cc3OC)CC2)c2nc(Br)ccc21 (single isomer, unassigned) [Example 115]
5. Cc1cccc(OCc2cncc(C#N)c2)c1C(c1ccc(F)cc1)N1CCN(c2c([N+](=O)[O-])c(=O)n(C)c3ccc(Br)nc23)CC1 (single isomer, unassigned) [Example 90]
6. C#CCn1c(=O)c([N+](=O)[O-])c(N2CCN(C(CC)c3ccc(F)cc3)CC2)c2nc(C#N)ccc21 (single isomer, unassigned) [Example 140]
7. Cn1c(=O)c(C#N)c(N2CCN(Cc3cc(F)cc(F)c3O)CC2)c2nc(Br)ccc21

Result string:
1: 0.85; 2: 0.83; 3: 1.1; 4: 220; 5: 82; 6: 0.64; 7: 0.89

Could you report IC50 for every entry in the following list?
1. COCCn1c(=O)c([N+](=O)[O-])c(N2CCN(C(c3ccccc3)c3ccccc3)CC2)c2ncccc21
2. CCC(c1ccc(F)cc1)N1CCN(c2c(C#N)c(=O)n(C)c3ccc(Br)nc23)CC1 (racemic) [Example 25]
3. Cn1c(=O)c([N+](=O)[O-])c(N2CCN(C(c3ccc(F)cc3)c3ccc(F)cc3)CC2)c2ncccc21

Result string:
1: 32; 2: 0.041; 3: 2.1

Provide IC50 values for the following items, in order.
1. COc1cc(F)ccc1C(c1ccc(F)cc1)N1CCN(c2c(C#N)c(=O)n(C)c3ccc(Br)nc23)CC1 (single isomer, unassigned) [Example 16]
2. Cn1c(=O)c(C#N)c(N2CCN(Cc3cc(Cl)cc(Cl)c3O)CC2)c2nc(Cl)ccc21

Result string:
1: 6.4; 2: 1.8
